Just for reference, the supplement of paper PMC7380943 is where these values come from.

Test system: CLZ3 (HCA2 human fibroblast dual HR-NHEJ reporter)
Assay: NHEJ repair efficiency (GFP+ cells) relative to control (log10 fold); higher = more non-homologous end joining
Settings: 5 µM; doxycycline 0.5 ug/mL

COMPOUND	NHEJ repair efficiency (log10)
O=C(O)c1cc(O)c2c(c1)[C@H]([C@H]1c3cc(C(=O)O)cc(O)c3C(=O)c3c(O[C@@H]4O[C@H](CO)[C@@H](O)[C@H](O)[C@H]4O)cccc31)c1cccc(O[C@@H]3O[C@H](CO)[C@@H](O)[C@H](O)[C@H]3O)c1C2=O [Sennoside A]	0.0438
COc1ccc(-c2coc3cc(O)cc(O)c3c2=O)cc1 [Biochanin A]	-0.0507
C=C(C)[C@@H]1CC[C@]2(C(=O)O[C@@H]3O[C@H](CO[C@@H]4O[C@H](CO)[C@@H](O[C@@H]5O[C@@H](C)[C@H](O)[C@@H](O)[C@H]5O)[C@H](O)[C@H]4O)[C@@H](O)[C@H](O)[C@H]3O)CC[C@]3(C)[C@H](CC[C@@H]4[C@@]5(C)CC[C@H](O[C@@H]6OC[C@H](O)[C@H](O)[C@H]6O[C@@H]6O[C@@H](C)[C@H](O)[C@@H](O)[C@H]6O)[C@@](C)(CO)[C@@H]5CC[C@]43C)[C@@H]12 [Anemoside B4]	-0.0464
C[C@H](CCC(=O)O)[C@H]1CC[C@H]2[C@@H]3C[C@H](O)[C@@H]4C[C@H](O)CC[C@]4(C)[C@H]3CC[C@]12C [Hyodesoxycholic acid]	-0.299
OC[C@H]1O[C@@H](Oc2cc(O)cc(/C=C/c3ccc(O[C@@H]4O[C@H](CO)[C@@H](O)[C@H](O)[C@H]4O)cc3O)c2)[C@H](O)[C@@H](O)[C@@H]1O [Mulberroside A]	0.049
C=CCc1ccc(O)c(-c2ccc(O)c(CC=C)c2)c1 [Honokiol]	0.125
C[C@H]1O[C@H](O[C@@H]2[C@@H](O)[C@H](OCCc3ccc(O)c(O)c3)O[C@H](CO[C@H]3OCC(O)(CO)[C@@H]3O)[C@H]2OC(=O)/C=C/c2ccc(O)c(O)c2)[C@@H](O)[C@@H](O)[C@@H]1O (stereo partly specified) [Forsythoside B]	0.0465
O=C(/C=C/c1ccc(O)c(O)c1)O[C@H](Cc1ccc(O)c(O)c1)C(=O)O [Rosmarinicacid]	-0.275
c1ccc2c(c1)OC1c3ccccc3OCC21 (stereo unspecified) [Pterocarpan]	0.112
CC(C)=CCC/C(C)=C/CC/C(C)=C/CC/C(C)=C/CC/C(C)=C/CC/C(C)=C/CC/C(C)=C/CC/C(C)=C/CC/C(C)=C/CO [Solanesol]	-0.0479
COc1cc(/C=C/CO)ccc1O[C@@H]1O[C@H](CO)[C@@H](O)[C@H](O)[C@H]1O [Coniferin]	0.0205

---

Tested on: CLZ3 (HCA2 human fibroblast dual HR-NHEJ reporter)
Assay: HR repair efficiency (tdTomato+ cells) relative to control (log10 fold); higher = more homologous recombination
Details: 5 µM; doxycycline 0.5 ug/mL
Recorded HR repair efficiency (log10) values for a group of compounds are listed next.
READOUT KIND: HR repair efficiency (log10)

COMPOUND	READOUT KIND	NUMBER
C[C@@]1(CO)C[C@@H](O)C[C@@]2(C)[C@@H]3CC[C@](C)([C@@H](O)CO)C=C3CC[C@H]12	HR repair efficiency (log10)	0.0441
CC(C)=CCC/C(C)=C/C=C/C(C)=C/C=C/C(C)=C/C=C/C=C(C)/C=C/C=C(C)/C=C/C=C(\C)CCC=C(C)C	HR repair efficiency (log10)	0.0372
Cc1cc(O)c2c(c1)C(=O)c1cccc(O)c1C2=O	HR repair efficiency (log10)	0.134
COc1c2c(cc3oc(CO)cc(=O)c13)O[C@H](C(C)(C)O)C2	HR repair efficiency (log10)	-0.0036
O=C(/C=C/c1ccc(O)cc1)OC[C@H]1O[C@@H](Oc2c(-c3ccc(O)cc3)oc3cc(O)cc(O)c3c2=O)[C@H](O)[C@@H](O)[C@@H]1O [Tiliroside]	HR repair efficiency (log10)	-0.0226
COc1cc(O)c2c(=O)c3c(O[C@@H]4O[C@H](CO)[C@@H](O)[C@H](O)[C@H]4O)ccc(O)c3oc2c1	HR repair efficiency (log10)	0.201
C[C@@H]1C(=O)O[C@H](C)[C@H]1C[C@@H](O)[C@](C)(O)[C@H]1CC[C@@]2(O)C3=CC(=O)[C@@H]4C[C@@H](O)[C@@H](O)C[C@]4(C)[C@H]3CC[C@]12C	HR repair efficiency (log10)	0.0455
O=c1c2ccccc2nc2n1CCc1c-2[nH]c2ccccc12	HR repair efficiency (log10)	-0.0255
COc1cc(/C=C/C(=O)O)ccc1O	HR repair efficiency (log10)	-0.0235
COc1cc(C2Oc3cc([C@H]4Oc5cc(O)cc(O)c5C(=O)[C@@H]4O)ccc3OC2CO)ccc1O (some centres undefined) [Silymarin Ⅱ]	HR repair efficiency (log10)	-0.127
Cc1cc(O)cc(O[C@@H]2O[C@H](CO)[C@@H](O)[C@H](O)[C@H]2O)c1 [Orcinol Glucoside]	HR repair efficiency (log10)	-0.0841
C[C@@H]1O[C@@H](OC[C@H]2O[C@@H](Oc3cc(O)c4c(c3)O[C@H](c3ccc(O)c(O)c3)CC4=O)[C@H](O)[C@@H](O)[C@@H]2O)[C@H](O)[C@H](O)[C@H]1O	HR repair efficiency (log10)	-0.0151
COc1ccc(-c2oc3c(CC=C(C)C)c(O[C@@H]4O[C@H](CO)[C@@H](O)[C@H](O)[C@H]4O)cc(O)c3c(=O)c2O[C@@H]2O[C@@H](C)[C@H](O)[C@@H](O)[C@H]2O[C@@H]2O[C@@H](C)[C@H](O)[C@@H](O)[C@H]2O)cc1 [Epimedin C]	HR repair efficiency (log10)	-0.0883
COc1ccc(-c2cc(=O)c3c(O)cc(O[C@@H]4O[C@H](CO[C@@H]5O[C@@H](C)[C@H](O)[C@@H](O)[C@H]5O)[C@@H](O)[C@H](O)[C@H]4O)cc3o2)cc1O	HR repair efficiency (log10)	-0.0408
NC(=O)c1cccnc1 [Nicotinamide]	HR repair efficiency (log10)	0.186
O=C(O[C@@H]1Cc2c(O)cc(O)cc2O[C@H]1c1cc(O)c(O)c(O)c1)c1cc(O)c(O)c(O)c1 [(-)Gallocatechin gallate]	HR repair efficiency (log10)	0.0198
C[N+](C)(C)C[C@H](O)CC(=O)[O-]	HR repair efficiency (log10)	0.0663
C[N+](C)(C)CC(=O)O	HR repair efficiency (log10)	-0.337
COc1ccc([C@@H]2CC(=O)c3c(O)cc(O[C@@H]4O[C@H](CO[C@@H]5O[C@@H](C)[C@H](O)[C@@H](O)[C@H]5O)[C@@H](O)[C@H](O)[C@H]4O)cc3O2)cc1O	HR repair efficiency (log10)	0.258
O=C(O)/C=C/c1ccc(O)c(O)c1 [Caffeic acid]	HR repair efficiency (log10)	0.0424
O=C1/C(=C2\Nc3ccccc3C2=O)Nc2ccccc21 [Indigotin]	HR repair efficiency (log10)	-0.105
Cn1c(=O)c2c(ncn2CC(O)CO)n(C)c1=O (centres undefined)	HR repair efficiency (log10)	0.116
C/C=C(/C)C(=O)O[C@H]1[C@@H](OC(=O)CC(C)C)c2c(ccc3ccc(=O)oc23)OC1(C)C	HR repair efficiency (log10)	-0.0529
COc1cc(-c2oc3cc(O)cc(O)c3c(=O)c2O[C@@H]2O[C@H](CO[C@H]3O[C@H](C)[C@@H](O)[C@H](O)[C@@H]3O)[C@@H](O)[C@H](O)[C@H]2O)ccc1O [Narcissoside; Isorhamnetin-3-O-β-D-rutinoside]	HR repair efficiency (log10)	-0.0269
C=C1C(=O)O[C@@H]2/C=C(\C)CC/C=C(\C)CC[C@@H]12 [Costunolide]	HR repair efficiency (log10)	0.07
Oc1cc(O)c2c(c1)OC(c1ccc(O)c(O)c1)C(OC1(c3ccc(O)c(O)c3)Oc3cc(O)cc(O)c3C(O)C1O)C2 (centres undefined)	HR repair efficiency (log10)	0.123
C=C[C@H]1[C@H](O[C@@H]2O[C@H](CO)[C@@H](O)[C@H](O)[C@H]2O)OC=C2C(=O)OCC[C@]21O	HR repair efficiency (log10)	-0.0353
CC(C)=CC[C@H](O)/C(C)=C/CO[C@@H]1O[C@H](CO)[C@@H](O)[C@H](O)[C@H]1O	HR repair efficiency (log10)	0.104
O=C1c2c(O)cc(O)cc2OC(c2ccc(O)c(O)c2)C1O (centres undefined)	HR repair efficiency (log10)	-0.0702

---

Tested on: CLZ3 (HCA2 human fibroblast dual HR-NHEJ reporter)
Assay: NHEJ repair efficiency (GFP+ cells) relative to control (log10 fold); higher = more non-homologous end joining
Conditions: 5 µM; doxycycline 0.5 ug/mL
Returns one of 1 (yes) or 0 (no); 1 (yes) when NHEJ repair efficiency (log10) is >= 0.0003.

COMPOUND	CATEGORY LABEL
C=C[C@H]1[C@H](O[C@@H]2O[C@H](CO)[C@@H](O)[C@H](O)[C@H]2O)OC=C(C(=O)OC)[C@H]1CCOC(=O)c1cc(O)c(O)c(O)c1 [Cornuside]	1 (yes)
OC[C@H]1O[C@H](OC[C@H]2O[C@H](O[C@]3(CO)O[C@H](CO)[C@@H](O)[C@@H]3O)[C@H](O)[C@@H](O)[C@@H]2O)[C@H](O)[C@@H](O)[C@H]1O	0 (no)
CC1(C)CC[C@]2(C(=O)O)CC[C@]3(C)C(=CC[C@@H]4[C@@]5(C)CC[C@H](O)[C@@](C)(CO)[C@@H]5CC[C@]43C)[C@@H]2C1	0 (no)
COc1cc(OC)c2ccc(=O)oc2c1	1 (yes)
CC(C)=CC[C@H](O)/C(C)=C/CO[C@@H]1O[C@H](CO)[C@@H](O)[C@H](O)[C@H]1O	1 (yes)
COc1ccc2c(OC)c3ccoc3nc2c1OC	0 (no)
CC(C)=CCC[C@](C)(O[C@@H]1O[C@H](CO[C@@H]2O[C@H](CO)[C@@H](O)[C@H](O)[C@H]2O)[C@@H](O)[C@H](O)[C@H]1O)[C@H]1CC[C@]2(C)[C@@H]1[C@H](O)C[C@@H]1[C@@]3(C)CC[C@H](O[C@@H]4O[C@H](CO)[C@@H](O)[C@H](O)[C@H]4O[C@@H]4O[C@H](CO)[C@@H](O)[C@H](O)[C@H]4O)C(C)(C)[C@@H]3CC[C@]12C [Ginsenoside Rb1]	1 (yes)
COc1cc([C@@H]2Oc3c(O)cc([C@H]4Oc5cc(O)cc(O)c5C(=O)[C@@H]4O)cc3[C@H]2CO)ccc1O	0 (no)
CCCCCC=CC(=O)CCc1ccc(O)c(OC)c1	0 (no)
CCCCCCCCCCCCCCCC(=O)OC [Methyl Palmitate]	1 (yes)
COc1ccc(-c2cc(=O)c3c(OC)c(OC)c(OC)c(OC)c3o2)cc1	0 (no)
CC1(C)O[C@H]2CC(=O)OC[C@]23[C@H]2CC[C@@]4(C)[C@H](c5ccoc5)OC(=O)[C@H]5O[C@]54[C@]2(C)C(=O)C[C@@H]13	1 (yes)
